- test-description: Saturation (equilibrium) solubility by shake-flask technique
- Assay type: physicochemical
- run-parameters: USP dissolution medium pH 4.5, aqueous buffer, thermodynamic from solid; pH 4.5; 37 °C ± 1 °C; Initial pH 4.52, Final pH 4.38
Structures can show the parent of a compound that is named as a salt.
observable: solubility (µg/mL)
Please reply with the bare figure in µg/mL and do not write the unit itself.

Reported solubility ( COc1cc2nccc(Oc3ccc(NC(=O)NC4CC4)c(Cl)c3)c2cc1C(N)=O [Lenvatinib mesylate] ) = 13

The measured values listed here are drawn from patent EP4424303A1.
